Where do the numbers come from? From patent US6933317B2.

test: Change of plasma concentration of drug in rat (half life of the disappearance after intravenous administration); assay type: in vivo; conditions: Jcl-SD male rats, 0.5 to 2 mg/kg, plasma concentration of unchanged compound

{"MOLECULE": "CC1(C)[C@H]2C[C@H](CCCCOCC(=O)O)[C@@H](NC(=O)c3ccsc3)[C@@H]1C2", "half-life / min": 44.3}
{"MOLECULE": "CC1(C)[C@H]2C[C@H](CCCC/C=C/C(=O)O)[C@@H](NC(=O)c3coc4ccc(O)cc34)[C@@H]1C2", "half-life / min": 16.7}
{"MOLECULE": "CC1(C)[C@H]2C[C@H](CCCCOCC(=O)O)[C@@H](NC(=O)c3cccc4ccsc34)[C@@H]1C2", "half-life / min": 66.7}
{"MOLECULE": "CC1(C)[C@H]2C[C@H](CCCCOCC(=O)O)[C@@H](NC(=O)c3coc4ccc(O)cc34)[C@@H]1C2", "half-life / min": 23.4}
{"MOLECULE": "CC1(C)[C@H]2C[C@H](C/C=C\\CCCC(=O)O)[C@@H](NC(=O)c3cccc4ccsc34)[C@@H]1C2 [Reference compound 2, reference compound]", "half-life / min": 17}
{"MOLECULE": "CC1(C)[C@H]2C[C@H](C/C=C\\CCCC(=O)O)[C@@H](NC(=O)c3coc4ccc(O)cc34)[C@@H]1C2 [Reference compound 3]", "half-life / min": 8.7}
{"MOLECULE": "CC1(C)[C@H]2C[C@H](C/C=C\\CCCC(=O)O)[C@@H](NC(=O)c3ccsc3)[C@@H]1C2 [Reference compound 1, reference compound]", "half-life / min": 8}
{"MOLECULE": "CC1(C)[C@H]2C[C@H](CCCC/C=C/C(=O)O)[C@@H](NC(=O)c3ccsc3)[C@@H]1C2", "half-life / min": 21.6}
{"MOLECULE": "CC1(C)[C@H]2C[C@H](CCCC/C=C/C(=O)O)[C@@H](NC(=O)c3cccc4ccsc34)[C@@H]1C2", "half-life / min": 34.6}

* * *

biological target: PGD2 receptor (Homo sapiens); construct: Peripheral blood was collected from a healthy volunteer; endogenous in cells; host or cells: washed human platelets from peripheral blood of a healthy volunteer; experiment: Antagonistic activity against PGD2 receptor using human platelet (inhibition of PGD2-induced cAMP increase); format: cell-based; conditions: 0.1 μM PGD2, cAMP by radioimmunoassay, read-out: Inhibitory activity for the increase of cAMP caused by PGD2 in human platelet IC50
Sequence (Q13258 whole entry): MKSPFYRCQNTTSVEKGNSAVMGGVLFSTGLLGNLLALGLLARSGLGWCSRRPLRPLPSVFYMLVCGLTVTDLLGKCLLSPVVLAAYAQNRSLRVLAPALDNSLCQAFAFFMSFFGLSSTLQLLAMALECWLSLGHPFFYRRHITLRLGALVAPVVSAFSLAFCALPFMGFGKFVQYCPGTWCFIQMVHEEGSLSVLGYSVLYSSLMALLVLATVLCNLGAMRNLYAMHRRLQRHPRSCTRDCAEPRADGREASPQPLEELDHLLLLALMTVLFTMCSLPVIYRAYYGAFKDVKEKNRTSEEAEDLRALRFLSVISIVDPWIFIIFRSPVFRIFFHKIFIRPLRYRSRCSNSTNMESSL
For each record, check the reported IC50: if it is below 10 nM write Satisfied, else write Not satisfied.

{"COMPOUND": "CC1(C)[C@H]2C[C@H](CCCC/C=C/C(=O)O)[C@@H](NC(=O)c3coc4cc(F)ccc34)[C@@H]1C2 [IIa-54]", "CATEGORY LABEL": "Not satisfied"}
{"COMPOUND": "COc1cc2c(C(=O)N[C@@H]3[C@@H](CCCCOCC(=O)O)C[C@H]4C[C@@H]3C4(C)C)csc2cc1F [IIc-129]", "CATEGORY LABEL": "Not satisfied"}
{"COMPOUND": "CC1(C)[C@H]2C[C@H](CCCCOCC(=O)O)[C@@H](NC(=O)c3cccc4ccsc34)[C@@H]1C2 [IIc-34]", "CATEGORY LABEL": "Not satisfied"}
{"COMPOUND": "CC1(C)[C@H]2C[C@H](CCCCSCC(=O)O)[C@@H](NC(=O)c3csc4cc(O)ccc34)[C@@H]1C2 [IIe-22]", "CATEGORY LABEL": "Satisfied"}
{"COMPOUND": "CCOC(=O)Nc1ccc2scc(C(=O)N[C@@H]3[C@@H](CCCCC(=O)O)C[C@H]4C[C@@H]3C4(C)C)c2c1 [IIf-84]", "CATEGORY LABEL": "Not satisfied"}
{"COMPOUND": "O=C(O)/C=C/CCCC[C@H]1[C@@H]2CC[C@@H](C2)[C@@H]1NC(=O)c1csc2ccccc12 [Ia-17]", "CATEGORY LABEL": "Not satisfied"}
{"COMPOUND": "CC1(C)[C@H]2C[C@H](CCCCOCC(=O)O)[C@@H](NC(=O)c3csc4ccc(F)cc34)[C@@H]1C2 [IIc-28]", "CATEGORY LABEL": "Not satisfied"}
{"COMPOUND": "CC1(C)[C@H]2C[C@H](CCCCOCC(=O)O)[C@@H](NC(=O)c3csc4ccccc34)[C@@H]1C2 [IIc-17]", "CATEGORY LABEL": "Satisfied"}
{"COMPOUND": "CC1(C)[C@H]2C[C@H](CCCCSCC(=O)O)[C@@H](NC(=O)c3csc4cccc(O)c34)[C@@H]1C2 [IIe-24]", "CATEGORY LABEL": "Satisfied"}
{"COMPOUND": "CC1(C)[C@H]2C[C@H](CCCCOCC(=O)O)[C@@H](NC(=O)c3csc4ccc(O)cc34)[C@@H]1C2 [IIc-23]", "CATEGORY LABEL": "Satisfied"}
{"COMPOUND": "CC1(C)[C@H]2C[C@H](CCCCOCC(=O)O)[C@@H](NC(=O)c3csc4cccc(O)c34)[C@@H]1C2 [IIc-24]", "CATEGORY LABEL": "Not satisfied"}
{"COMPOUND": "CC1(C)[C@H]2C[C@H](CCCC/C=C/C(=O)O)[C@@H](NC(=O)c3cc4ccsc4[nH]3)[C@@H]1C2 [IIa-66]", "CATEGORY LABEL": "Not satisfied"}
{"COMPOUND": "CC1(C)[C@H]2C[C@H](CCCCOCC(=O)O)[C@@H](NC(=O)c3coc4ccc(O)cc34)[C@@H]1C2 [IIc-52]", "CATEGORY LABEL": "Satisfied"}
{"COMPOUND": "O=C(O)/C=C/CCCC[C@H]1[C@@H]2CC[C@@H](C2)[C@@H]1NC(=O)c1cc2sccc2[nH]1 [Ia-65]", "CATEGORY LABEL": "Not satisfied"}
